Reference source: ChEMBL document CHEMBL3046432

Sequence of the target: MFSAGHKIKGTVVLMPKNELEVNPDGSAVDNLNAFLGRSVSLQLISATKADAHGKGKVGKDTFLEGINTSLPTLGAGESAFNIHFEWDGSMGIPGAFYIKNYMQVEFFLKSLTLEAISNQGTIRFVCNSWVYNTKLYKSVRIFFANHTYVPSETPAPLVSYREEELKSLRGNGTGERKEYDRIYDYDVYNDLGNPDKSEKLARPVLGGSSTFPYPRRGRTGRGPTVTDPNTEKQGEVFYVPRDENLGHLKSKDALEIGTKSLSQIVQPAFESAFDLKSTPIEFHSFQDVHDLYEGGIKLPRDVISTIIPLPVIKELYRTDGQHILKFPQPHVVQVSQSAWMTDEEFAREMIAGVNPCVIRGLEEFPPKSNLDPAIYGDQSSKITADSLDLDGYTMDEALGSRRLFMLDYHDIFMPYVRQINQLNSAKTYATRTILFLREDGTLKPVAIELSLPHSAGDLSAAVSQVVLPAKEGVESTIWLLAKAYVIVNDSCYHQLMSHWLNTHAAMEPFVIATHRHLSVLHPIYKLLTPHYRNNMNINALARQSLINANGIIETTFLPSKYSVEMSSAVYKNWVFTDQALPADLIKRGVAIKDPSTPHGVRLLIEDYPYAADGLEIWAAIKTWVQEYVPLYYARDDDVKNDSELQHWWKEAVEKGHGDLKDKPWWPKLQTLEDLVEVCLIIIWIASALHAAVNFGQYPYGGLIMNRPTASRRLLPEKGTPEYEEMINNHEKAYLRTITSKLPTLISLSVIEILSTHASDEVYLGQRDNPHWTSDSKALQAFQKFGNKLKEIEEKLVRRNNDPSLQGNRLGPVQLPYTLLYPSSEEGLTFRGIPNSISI
readout_label: pKi
Note on pKi: it is the negative log10 of concentration, concentration in mol/L.

- CCCc1nc(N2CCC(C)CC2)nc2c1Nc1ccccc1S2: 6.31
- CCCc1nc(N2CCN(c3ccccc3)CC2)nc2c1Nc1ccccc1S2: 5.93
- Cc1nc(N2CCN(C)CC2)nc2c1Nc1ccccc1S2: 6.70

Please find the next compound below.
pKi recorded for this compound, `CCCc1nc(N2CCOCC2)nc2c1Nc1ccccc1S2` , is 5.70
